test: clinical; conditions: human, plasma, oral, 400 mg, Tmax Mean, Part 1 Cohort 3, 400 mg QD, Cycle 1 Day 14

compound: CCCCCCCCCCCCCCCC(=O)NCCCC[C@@H](N)C(=O)NCCCNCCCCNCCCN [AMXT 1501, D-lys(palmitoyl)-spermine]
Tmax / h: 5

====

assay: in vivo; settings: BALB/c, mouse, tumor and plasma, sc, 2.5 mg/kg

molecular string: CCCCCCCCCCCCCCCC(=O)NCCCC[C@@H](N)C(=O)NCCCNCCCCNCCCN
Kp at 72 h: 894

====

assay: clinical; settings: human, plasma, oral, 80 mg, Tmax Median, Part 1 Cohort 1, 80 mg QD, Cycle 1 Day 14

compound: CCCCCCCCCCCCCCCC(=O)NCCCC[C@@H](N)C(=O)NCCCNCCCCNCCCN [AMXT 1501, D-lys(palmitoyl)-spermine]
scale unit: h
Tmax: 4

====

experiment: clinical; conditions: human, plasma, oral, 1800 mg, Cmax Mean, Part 1 Cohort 5, 1800 mg QD, Cycle 1 Day 1
measured property: Cmax (ng/mL)

molecular string: CCCCCCCCCCCCCCCC(=O)NCCCC[C@@H](N)C(=O)NCCCNCCCCNCCCN
measured property: Cmax
scale unit: ng/mL
readout number: 367

====

assay: in vivo; conditions: male, Th-MYCN, mouse, stomach contents, sc, 2.5 mg/kg

molecular string: CCCCCCCCCCCCCCCC(=O)NCCCC[C@@H](N)C(=O)NCCCNCCCCNCCCN
concentration at 96 h, ng/g: 8800

====

assay: in vivo; conditions: male, Th-MYCN, mouse, stomach wall, subcutaneous, 2.5 mg/kg

molecular string: CCCCCCCCCCCCCCCC(=O)NCCCC[C@@H](N)C(=O)NCCCNCCCCNCCCN
concentration at 96 h / ng/g: 8810

====

assay: clinical; conditions: human, plasma, oral, 1800 mg, Tmax Mean, Part 1 Cohort 5, 1800 mg QD, Cycle 1 Day 14

compound: CCCCCCCCCCCCCCCC(=O)NCCCC[C@@H](N)C(=O)NCCCNCCCCNCCCN [AMXT 1501, D-lys(palmitoyl)-spermine]
Tmax [h]: 5.5

====

test: clinical; conditions: human, plasma, oral, 1800 mg, AUC0-6 hr Median, Part 1 Cohort 5, 1800 mg QD, Cycle 2 Day 14, n=1

compound: CCCCCCCCCCCCCCCC(=O)NCCCC[C@@H](N)C(=O)NCCCNCCCCNCCCN [AMXT 1501, D-lys(palmitoyl)-spermine]
AUC(0-t): 7240 ng·h/mL

====

test: clinical; settings: human, plasma, oral, 1800 mg, Tmax Median, Part 1 Cohort 5, 1800 mg QD, Cycle 2 Day 14, n=1

compound: CCCCCCCCCCCCCCCC(=O)NCCCC[C@@H](N)C(=O)NCCCNCCCCNCCCN [AMXT 1501, D-lys(palmitoyl)-spermine]
scale unit: h
Tmax: 6

====

assay: in vivo; conditions: male, Th-MYCN, mouse, testis, sc, 2.5 mg/kg

molecular string: CCCCCCCCCCCCCCCC(=O)NCCCC[C@@H](N)C(=O)NCCCNCCCCNCCCN
concentration at 96 h (ng/g): 9160

====

assay: in vivo; conditions: male, Th-MYCN, mouse, eye, sc, 2.5 mg/kg
measured property: concentration at 96 h (ng/g)

molecular string: CCCCCCCCCCCCCCCC(=O)NCCCC[C@@H](N)C(=O)NCCCNCCCCNCCCN
readout number: 9300
